- System: L1210 leukemia ip in BDF1 mice, survival T/C
- TEST_SUMMARY: NCI In Vivo Anticancer Drug Screen. Data for tumor model L1210 Leukemia (intraperitoneal) in B6D2F1 (BDF1) mice
- CONDITIONS_USED: endpoint: mean survival time; dose: 75.0 mg/kg/injection; schedule: Q01DX009 (ip); vehicle: saline; higher = longer survival
Inconclusive results and toxic doses are left out.
Each entry below carries its reported T/C.

CCSCCCCO 102 % of control

For record CC(=O)OCCN(C)C the listed T/C is 104 % of control

For record CCOC(=O)c1cc(C(=O)OCC)c(C)nc1C the listed T/C is 94 % of control

For record CC(=O)C(CCC#N)(CCC#N)CCC#N the listed T/C is 93 % of control

* * *

- Tested on: L1210 leukemia ip in BDF1 mice, survival T/C
- TEST_SUMMARY: NCI In Vivo Anticancer Drug Screen. Data for tumor model L1210 Leukemia (intraperitoneal) in B6D2F1 (BDF1) mice
- CONDITIONS_USED: endpoint: mean survival time; dose: 100.0 mg/kg/injection; schedule: Q04DX003 (ip); vehicle: Klucel (hydroxypropylcellulose) (HPC); higher = longer survival
Inconclusive results and toxic doses are left out.
Each entry below carries its reported T/C.

For record CCN(c1ccccc1C)S(=O)(=O)c1ccccc1 the listed T/C is 103 % of control

For record CC1(C)C2CC3C(C(=O)O)C(C(=O)O)CCC3(C2)C1OC=O (stereo unspecified) the listed T/C is 99 % of control

For record O=C(O)COc1ccccc1OCC(=O)O the listed T/C is 94 % of control

* * *

- System: L1210 leukemia ip in BDF1 mice, survival T/C
- TEST_SUMMARY: NCI In Vivo Anticancer Drug Screen. Data for tumor model L1210 Leukemia (intraperitoneal) in B6D2F1 (BDF1) mice
- CONDITIONS_USED: endpoint: mean survival time; dose: 200.0 mg/kg/injection; schedule: Q01DX001 (ip); vehicle: Klucel (hydroxypropylcellulose) (HPC); higher = longer survival
Inconclusive results and toxic doses are left out.
VALUE_KIND: T/C

Field: example entries. Status: answers known.
COMPOUND	SYSTEM_TESTED	T/C
O=C1C2CC3C=CC1C(C3)C2 (stereo not given) (tested in a mixture with another compound)	L1210 leukemia ip in BDF1 mice, survival T/C	103 % of control
O=C1CC2(CCCCC2)C(=O)N1N1CCCCCC1	L1210 leukemia ip in BDF1 mice, survival T/C	100 % of control
COc1ccc(-n2c(O)c(N=Nc3ccc(Br)cc3)c(=O)n(-c3ccccc3)c2=S)cc1	L1210 leukemia ip in BDF1 mice, survival T/C	100 % of control
O=C(COc1ccc(Cl)c(Cl)c1)NCCc1cc[n+](Cc2ccc(Cl)c(S(=O)(=O)F)c2)cc1	L1210 leukemia ip in BDF1 mice, survival T/C	94 % of control

In the following, a different compound is considered.
Result for CCC(COC(=O)c1ccccc1)(COC(=O)c1ccccc1)[N+](=O)[O-] , tested on L1210 leukemia ip in BDF1 mice, survival T/C, T/C: 95 % of control

* * *

Each entry below carries its reported T/C.
- Test system: L1210 leukemia ip in BDF1 mice, survival T/C
- TEST_SUMMARY: NCI In Vivo Anticancer Drug Screen. Data for tumor model L1210 Leukemia (intraperitoneal) in B6D2F1 (BDF1) mice
- CONDITIONS_USED: endpoint: mean survival time; dose: 100.0 mg/kg/injection; schedule: Q01DX009 (ip); vehicle: Klucel (hydroxypropylcellulose) (HPC); higher = longer survival
- Description: The antitumor activity of compounds was measured in mice bearing transplantable tumors. Survival or tumor size were measured and the results are expressed as the measurement made in the treated group (T) divided by the measurement made in the vehicle treated control group (C). The tumor model used in this assay is L1210 Leukemia (intraperitoneal) in B6D2F1 (BDF1) mice
Inconclusive results and toxic doses are left out.

Field: example entries. Status: answers known.
COMPOUND	T/C
CCOC(=O)N(C)c1ccccc1	101 % of control
COC(=O)/C=C/NC(=O)c1ccccc1C(=O)OC	98 % of control
CCN(c1ccccc1)c1ccc(C=O)cc1	98 % of control
CCOC(=O)C(=Cc1ccccc1Cl)C(=O)OCC	88 % of control
CC(COC(=O)c1ccccc1)(COC(=O)c1ccccc1)COC(=O)c1ccccc1	96 % of control
Cn1c(=O)c2c(ncn2CCOC(=O)C(C)(C)Oc2ccc(Cl)cc2)n(C)c1=O	92 % of control
O=P(NC12CC3CC(CC(C3)C1)C2)(NC12CC3CC(CC(C3)C1)C2)N(CCCl)CCCl	104 % of control
Cc1ccc(Cl)cc1NC(=O)Nc1ccccc1Cl	92 % of control
CCCCCCCCOC(=O)Nc1ccccc1	100 % of control
CC(=O)Nc1ccccc1Cl	100 % of control

Result for CC(=O)C1=CN(C(C)(C)C)COC1C (configuration not stated) , tested on L1210 leukemia ip in BDF1 mice, survival T/C, T/C: 95 % of control

Result for CC1=C/C(=N\N=C2/C=C(C)CC(C)(C)C2)CC(C)(C)C1 , tested on L1210 leukemia ip in BDF1 mice, survival T/C, T/C: 95 % of control
